Test system: HCT-116
Method: NCI tumour cell line growth inhibition, 48 h
Active and inactive are the calls of the source. Cut-off read from the data, not from the text of the source: active = GI50 up to about 1.1 µM and inactive = higher.
Readout name: GI50

Entry `COc1cccc2c3cccc(OC)c3c3[nH]cnc3c12` needs its GI50 filled in; supply it.
1.63 µM (inactive)

***
Return value of GI50 for input CC(C)(C)C1=C(Br)C(C(C)(C)C)OP1(=O)O (stereo not given) , no commentary.
> 100 µM (inactive)

Name the recorded GI50 of the compound listed here: `O=C(O)c1nnsc1-c1csnn1`
> 100 µM (inactive)

Answer with the recorded GI50 for the compound listed here: `COc1cc2c(cc1OCCCCCOc1cc3c(cc1OC)C(=O)N1CCC[C@H]1CN3)N=C[C@@H]1CCCN1C2=O`
4.85 µM (inactive)

For the compound `Cc1[nH]c2c(C)ccc(C)c2c1CC(=O)O` , give its reported GI50.
38.5 µM (inactive)

Kindly indicate its recorded GI50. Item: CC1=CCC2CC1NC(=O)CCOCCC(=O)NC2(C)C (stereo not given)
> 100 µM (inactive)

Please give measured GI50 of the following entry: `COc1cc(O)c2c(=O)c3cccc(C)c3[nH]c2c1`
> 10 µM (inactive)

Look up GI50 of CCN(CC)CCCNC(=O)C1COc2cc(-c3cc(=O)c4ccccc4o3)ccc2O1 (stereo not given) and report it.
37.4 µM (inactive)

Could you please provide reported GI50 for CN(C)/N=N/c1nc2c(c(=O)n(C)c(=O)n2C)n1CC(O)CO (stereo not given) ? Thanks!
> 100 µM (inactive)

Input CC1(C)[C@H]2CC[C@@]13C(=O)N1C(=O)O[C@@H]([C@H]1Cl)C(Cl)(COCc1ccccc1)C(=O)OCCO[C@H]3C2 (stereo not given in full) , output reported GI50.
37.8 µM (inactive)

----------
Tested on: UACC-257
Method: NCI tumour cell line growth inhibition, 48 h
The source made the active and inactive calls. No stated cut-off is given here; in the data, active = GI50 up to about 1.1 µM and inactive = higher.
Result category, one only: true for active, false for inactive

A selection of reference data follows.
Call for entry `COc1ccc(OC)c2c1ccc1c(C)c3ccccc3c(C)c12` :
false

Which outcome did this test record for the compound `CN(C)CCCN1c2ccccc2Sc2cnccc21` ?
false

Per the assay record, what outcome was assigned to Cc1ccc(C(=O)C2=CN=C3C(=O)N(c4ccccc4)N(C)C3(C)C2=N)cc1 (configuration not stated) ?
false

Tell me the assay call for `CCOC(=O)/C(C(=O)c1ccc[nH]1)=C1/CCCN1C` please.
false

Please state the recorded outcome for this compound: C[C@]1(CO)CCC[C@@]2(C)C1CC[C@H]1CC3C[C@]12CC[C@]3(C)O (some centres not stated)
false

Could you check what this test reported for `CNCCN[C@@H]1c2cc3c(cc2[C@@H](c2cc(OC)c(O)c(OC)c2)[C@H]2C(=O)OC[C@@H]21)OCO3` ?
true

Pending compound:
Just curious, what result did CC(C)(C)c1cc(C(C)(C)C)c(P=C(Cl)Cl)c(C(C)(C)C)c1 (configuration not stated) get here?
false

----------
Test system: OVCAR-8
Method: NCI tumour cell line growth inhibition, 48 h
The source made the active and inactive calls. Rule as the data show it: active = GI50 up to about 1.1 µM and inactive = higher.
Readout name: GI50

Param request: GI50 | system OVCAR-8 | item `COc1ccc(OC)c2c1ccc1c(C)c3ccccc3c(C)c12`
> 100 µM (inactive)

State measured GI50 of the compound `COc1ccc(Cn2nc(OCc3ccccn3)c3cc([N+](=O)[O-])ccc32)cc1` with OVCAR-8.
63.1 µM (inactive)

State, for OVCAR-8, measured GI50 of the compound listed here: CCOC(=O)CSC1NC(C(=O)OC)CC1OC (stereo unspecified)
> 100 µM (inactive)

***
Provide OVCAR-8 GI50 reading for CCN(CC)CCC1CC/C(=C\c2ccc(OC)cc2)C1=O (stereo unspecified) .
> 100 µM (inactive)

Fill in: GI50 on OVCAR-8, entry C/C(=N/O)C1CC=C(S(=O)(=O)c2ccccc2)C1 (stereo unspecified)
> 100 µM (inactive)

Report value only: GI50, OVCAR-8, `CCCCC1(C2c3ccccc3Oc3ccccc32)C(=O)N(c2ccccc2)N(c2ccccc2)C1=O`
> 100 µM (inactive)
